Test Target: Lysosomal acid glucosylceramidase (Homo sapiens) (UniProt P04062)
Sequence (P04062 whole entry): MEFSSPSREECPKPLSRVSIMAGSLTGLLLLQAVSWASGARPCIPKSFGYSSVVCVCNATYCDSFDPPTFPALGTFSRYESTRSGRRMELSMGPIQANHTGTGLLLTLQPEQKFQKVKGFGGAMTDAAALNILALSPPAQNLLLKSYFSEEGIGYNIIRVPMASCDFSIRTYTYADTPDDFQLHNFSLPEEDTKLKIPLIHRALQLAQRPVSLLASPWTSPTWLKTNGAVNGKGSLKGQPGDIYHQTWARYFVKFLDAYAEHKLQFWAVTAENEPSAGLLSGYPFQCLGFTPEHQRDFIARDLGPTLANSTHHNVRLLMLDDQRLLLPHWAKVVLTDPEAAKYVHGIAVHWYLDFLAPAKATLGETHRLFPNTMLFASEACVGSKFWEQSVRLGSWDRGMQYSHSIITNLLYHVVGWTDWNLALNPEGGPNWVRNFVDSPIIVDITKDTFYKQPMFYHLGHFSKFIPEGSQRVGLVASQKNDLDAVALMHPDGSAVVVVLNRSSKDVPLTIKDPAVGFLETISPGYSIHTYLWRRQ
Protocol Text: Inhibition of human recombinant lysosomal GCase at 1 mM using 4-methylumbelliferyl-beta-D-glucopyranoside as substrate preincubated for 45 mins followed by substrate addition and measured after 30 mins by fluorescence spectrophotometric assay relative to control
Test Conditions: time 75.0 min
Endpoint: inhibition

Sample NC(COCc1cn(CCCc2cn(C[C@H]3NC[C@@H](O)[C@H]3O)nn2)nn1)(COCc1cn(CCCc2cn(C[C@H]3NC[C@@H](O)[C@H]3O)nn2)nn1)COCc1cn(CCCc2cn(C[C@H]3NC[C@@H](O)[C@H]3O)nn2)nn1 ; inhibition observed: < 50%
